# target-entity: PTK2 enzyme (Homo sapiens, UniProt Q05397)
# Construct: purchased Invitrogen PV3832
# Sequence (Q05397 whole entry): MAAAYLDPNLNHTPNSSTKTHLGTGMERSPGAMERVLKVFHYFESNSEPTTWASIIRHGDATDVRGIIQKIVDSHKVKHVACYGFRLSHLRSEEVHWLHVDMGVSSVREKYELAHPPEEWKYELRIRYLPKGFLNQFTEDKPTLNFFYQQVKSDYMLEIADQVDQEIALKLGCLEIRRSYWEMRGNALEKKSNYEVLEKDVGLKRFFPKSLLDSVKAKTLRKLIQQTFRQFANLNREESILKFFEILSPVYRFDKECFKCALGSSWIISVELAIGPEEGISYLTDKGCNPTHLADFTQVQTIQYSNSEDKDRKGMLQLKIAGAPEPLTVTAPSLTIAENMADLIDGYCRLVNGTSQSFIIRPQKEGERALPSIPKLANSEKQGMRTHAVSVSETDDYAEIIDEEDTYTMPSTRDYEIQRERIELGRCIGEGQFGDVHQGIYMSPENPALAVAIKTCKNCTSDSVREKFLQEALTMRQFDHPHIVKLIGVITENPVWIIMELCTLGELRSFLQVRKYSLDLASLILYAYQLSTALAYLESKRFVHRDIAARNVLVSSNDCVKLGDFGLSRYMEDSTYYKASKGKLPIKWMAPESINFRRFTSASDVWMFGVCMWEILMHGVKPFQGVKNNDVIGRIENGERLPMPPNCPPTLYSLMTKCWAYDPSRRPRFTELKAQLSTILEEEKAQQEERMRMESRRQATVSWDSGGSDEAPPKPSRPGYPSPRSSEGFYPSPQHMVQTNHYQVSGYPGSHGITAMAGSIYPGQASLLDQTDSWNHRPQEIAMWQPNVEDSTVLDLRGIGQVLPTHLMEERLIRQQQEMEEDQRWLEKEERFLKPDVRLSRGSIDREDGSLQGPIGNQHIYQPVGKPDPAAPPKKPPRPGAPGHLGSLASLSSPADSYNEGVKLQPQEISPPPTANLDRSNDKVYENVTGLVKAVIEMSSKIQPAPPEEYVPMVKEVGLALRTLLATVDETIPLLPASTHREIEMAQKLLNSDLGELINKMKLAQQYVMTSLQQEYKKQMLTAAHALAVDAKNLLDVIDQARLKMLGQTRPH
# assay-text: PTK2 enzyme test, Assay 1 (DELFIA, poly-Glu-Tyr substrate, antibody PT60)
# Type: biochemical
# measurement-context: Assay 1 (values without *); 1 h pre-incubation, 2% DMSO
# Description: This test uses active PTK2 enzyme (Invitrogen Code PV3832) and poly-Glu-Tyr (4:1, Sigma P-0275) as the kinase substrate. The kinase activity is detected through the phosphorylation of the substrate in a DELFIA™ assay. The phosphorylated substrate is detected with the europium-labelled phosphotyrosine antibody PT60 (Perkin Elmer, No.: AD00400). […] The time-delayed europium fluorescence is then measured in a microtitre plate reader (VICTOR^3, Perkin Elmer). […]
Listing of recorded IC50 by entry.
Answers without a unit are incomplete; give the number and then its unit.

COc1ccc(Nc2ncc(Cl)c(N[C@@H]3CCCC[C@H]3NC(C)=O)n2)c(OC)c1 [Example I-67]    10 nM
COc1cc(CN2CCN(C)CC2)ccc1Nc1ncc(C(F)(F)F)c(N[C@@H]2CCCC[C@H]2N(C)S(C)(=O)=O)n1 [Example I-148]    0.95 nM
COc1cc(C(=O)N[C@H]2CCCN(C)C2)ccc1Nc1ncc(C(F)(F)F)c(N[C@@H]2CCCC[C@H]2N(C)C(C)=O)n1 [Example I-107]    1 nM

Field request: IC50 | item: COc1cc(N2CCN(C)CC2)ccc1Nc1ncc(C(F)(F)F)c(N[C@@H]2CCCC[C@H]2NC(=O)C(C)C)n1 [Example I-30]
5 nM

====

# target-entity: PTK2 enzyme (Homo sapiens)
# Construct: purchased Invitrogen PV3832
# assay-text: PTK2 enzyme test, Assay 1 (DELFIA, poly-Glu-Tyr substrate, antibody PT60)
# Format: biochemical
# measurement-context: Assay 1 (values without *); 1 h pre-incubation, 2% DMSO
Listing of recorded IC50 by entry.
Enter your answer as a number in nM; do not include the unit.

COc1cc(C(=O)NC2CCCN(C)C2)ccc1Nc1ncc(Cl)c(N[C@@H]2CCCC[C@H]2NC(C)=O)n1 (stereo partly shown) [Example I-62]    1
COc1ccc(Nc2ncc(C(F)(F)F)c(N[C@@H]3CCCC[C@H]3NC(=O)CC(C)C)n2)c(OC)c1 [Example I-70]    440

Consider the record given below.
Field request: IC50 | item: COc1cc(C(=O)NC2CCN(C)CC2)ccc1Nc1ncc(C(F)(F)F)c(N[C@@H]2CCCC[C@H]2N(C)S(C)(=O)=O)n1 [Example I-90]
0.8

====

# target-entity: Xenopus laevis Aurora B/INCENP complex (Xenopus laevis, UniProt Q6DE08)
# Construct: equipped at the N-terminal position with a GST tag (amino acids 60-361); GST (N, cleaved yes)
# Sequence (Q6DE08 60-361): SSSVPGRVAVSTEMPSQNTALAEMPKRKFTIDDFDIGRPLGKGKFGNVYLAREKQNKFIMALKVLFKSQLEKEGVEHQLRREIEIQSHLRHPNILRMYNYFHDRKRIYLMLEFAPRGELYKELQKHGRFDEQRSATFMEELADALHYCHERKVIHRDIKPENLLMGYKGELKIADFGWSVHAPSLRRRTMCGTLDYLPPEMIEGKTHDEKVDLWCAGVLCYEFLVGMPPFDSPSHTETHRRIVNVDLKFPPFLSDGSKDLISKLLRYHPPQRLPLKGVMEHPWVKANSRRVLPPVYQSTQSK
# Sequence (O13024 790-847 partner): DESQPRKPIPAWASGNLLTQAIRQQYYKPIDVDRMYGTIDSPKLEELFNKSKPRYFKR
# assay-text: Aurora-B kinase assay (radioactive enzyme inhibition)
Listing of recorded pIC50 by entry.
pIC50 is a log-scale quantity: -log10 of the concentration expressed in molar.

COc1cc(C(=O)NC2CCOCC2)c(C)cc1Nc1ncc(C(F)(F)F)c(N[C@@H]2CCC[C@H]2NS(C)(=O)=O)n1 [Example I-195]    6.19

Consider the record given below.
Field request: pIC50 | item: C#CCNC(=O)c1cc(OC)c(Nc2ncc(C(F)(F)F)c(N[C@@H]3CCC[C@H]3NS(C)(=O)=O)n2)cc1C [Example I-138]
6.37

====

# target-entity: Xenopus laevis Aurora B/INCENP complex (Xenopus laevis, UniProt Q6DE08)
# Construct: equipped at the N-terminal position with a GST tag (amino acids 60-361); GST (N, cleaved yes)
# assay-text: Aurora-B kinase assay (radioactive enzyme inhibition)
Listing of recorded pIC50 by entry.
pIC50 is a log-scale quantity: -log10 of the concentration expressed in molar.

COc1cc(NC(=O)[C@H]2CCCN2C)ccc1Nc1ncc(C(F)(F)F)c(N[C@@H]2CCCC[C@H]2N(C)S(C)(=O)=O)n1    6.38
COc1cc(NC(C)=O)ccc1Nc1ncc(C(F)(F)F)c(N[C@@H]2CCCC[C@H]2N(C)S(C)(=O)=O)n1    6.78
COc1cc(CN(C)C)ccc1Nc1ncc(C(F)(F)F)c(N[C@@H]2CCCC[C@H]2N(C)S(C)(=O)=O)n1    6.48

Quick check: pIC50 on Xenopus laevis Aurora B/INCENP complex (Xenopus laevis, UniProt Q6DE08), item `COc1cc(C(=O)NC2CCN(C)CC2)c(F)cc1Nc1ncc(Br)c(N[C@@H]2CCC[C@H]2N(C)S(C)(=O)=O)n1` ?
6.51

====

# target-entity: Xenopus laevis Aurora B/INCENP complex (Xenopus laevis, UniProt Q6DE08)
# Construct: equipped at the N-terminal position with a GST tag (amino acids 60-361); GST (N, cleaved yes)
# assay-text: Aurora-B kinase assay (radioactive enzyme inhibition)
Listing of recorded pIC50 by entry.
pIC50 is a log-scale quantity: -log10 of the concentration expressed in molar.

Previously resolved entries follow.
COc1cc(N2CCNCC2)c(Cl)cc1Nc1ncc(C(F)(F)F)c(N[C@@H]2CCC[C@H]2N(C)S(C)(=O)=O)n1    6.11
COc1cc(C(=O)NC2CCN(C)CC2)c(C)cc1Nc1ncc(Cl)c(N[C@@H]2CCCC[C@H]2N(C)S(C)(=O)=O)n1    5.47
COCCN1CCC(NC(=O)c2cc(OC)c(Nc3ncc(Cl)c(N[C@@H]4CCC[C@H]4N(C)S(C)(=O)=O)n3)cc2Cl)CC1    5.94

Consider the record given below.
Field request: pIC50 | item: `COc1cc(C(=O)NC2CCN(C)CC2)ccc1Nc1ncc(C(F)(F)F)c(N[C@@H]2CCCC[C@H]2N(C)S(C)(=O)=O)n1`
6.55

====

# target-entity: PTK2 enzyme (Homo sapiens)
# Construct: purchased Invitrogen PV3832
# assay-text: PTK2 enzyme test, Assay 1 (DELFIA, poly-Glu-Tyr substrate, antibody PT60)
# Type: biochemical
# measurement-context: Assay 1 (values without *); 1 h pre-incubation, 2% DMSO
quantity: pIC50
pIC50 is a log-scale quantity: -log10 of the concentration expressed in molar.

Previously resolved entries follow.
CCN1CCC(NC(=O)c2ccc(Nc3ncc(C(F)(F)F)c(N[C@@H]4CCCC[C@H]4NC(C)=O)n3)c(OC)c2)CC1 [Example I-8]    8.70
CCN(C(C)=O)[C@@H]1CCCC[C@H]1Nc1nc(Nc2ccc(C(=O)NC3CCN(C)CC3)cc2OC)ncc1C(F)(F)F [Example I-99]    8.52
CCN([C@@H]1CCCC[C@H]1Nc1nc(Nc2ccc(NC(C)=O)c(OC)c2)ncc1C(F)(F)F)S(C)(=O)=O [Example I-189]    8.05

Field request: pIC50 | item: COc1cc(C(=O)NCCN(C)C)c(F)cc1Nc1ncc(Cl)c(N[C@@H]2CCC[C@H]2N(C)S(C)(=O)=O)n1 [Example I-170]
8.70

Field request: pIC50 | item: CNC(=O)c1cc(OC)c(Nc2ncc(C(F)(F)F)c(N[C@@H]3CCCC[C@H]3NC(C)=O)n2)cc1F [Example I-85]
8.70

Field request: pIC50 | item: COc1cc(C(=O)N(C)C)ccc1Nc1ncc(Cl)c(N[C@@H]2CCCC[C@H]2NC(C)=O)n1 [Example I-57]
7.59

====

Listing of recorded log10 of IC50 by entry.
# target-entity: PTK2 enzyme (Homo sapiens)
# Construct: purchased Invitrogen PV3832
# assay-text: PTK2 enzyme test, Assay 1 (DELFIA, poly-Glu-Tyr substrate, antibody PT60)
# Format: biochemical
# measurement-context: Assay 1 (values without *); 1 h pre-incubation, 2% DMSO
// units: nM (pre-log); metric: IC50; scale: log10

COc1cc(N2CCN(CC(=O)N(C)C)CC2)ccc1Nc1ncc(C(F)(F)F)c(N[C@@H]2CCCC[C@H]2N(C)S(C)(=O)=O)n1    0.30
CCNC(=O)c1ccc(Nc2ncc(C(F)(F)F)c(N[C@@H]3CCCC[C@H]3NC(C)=O)n2)c(OC)c1    0.48
COc1cc(C(=O)NC2CCCN(C)C2)ccc1Nc1ncc(C(F)(F)F)c(N[C@H]2CCCC[C@@H]2NC(C)=O)n1 (stereo partly drawn)    2.60
COc1cc(N2CCN(C)CC2)ccc1Nc1ncc(C(F)(F)F)c(N[C@@H]2CCCC[C@H]2NC(=O)CN(C)C)n1    1.32
COc1cc(C(=O)NC2CCN(C)CC2)c(Cl)cc1Nc1ncc(C(F)(F)F)c(N[C@@H]2CCCC[C@H]2N(C)S(C)(=O)=O)n1    -0.10

Consider the record given below.
Field request: log10 of IC50 | item: `COc1cc(C(=O)NC2CCN(C)CC2)ccc1Nc1ncc(C(F)(F)F)c(N[C@@H]2CCCC[C@H]2N(C)C(=O)C2CC2)n1`
0.60

====

# target-entity: PTK2 enzyme (Homo sapiens)
# Construct: purchased Invitrogen PV3832
# assay-text: PTK2 enzyme test, Assay 1 (DELFIA, poly-Glu-Tyr substrate, antibody PT60)
# Type: biochemical
# measurement-context: Assay 1 (values without *); 1 h pre-incubation, 2% DMSO
# Procedure: This test uses active PTK2 enzyme (Invitrogen Code PV3832) and poly-Glu-Tyr (4:1, Sigma P-0275) as the kinase substrate. The kinase activity is detected through the phosphorylation of the substrate in a DELFIA™ assay. The phosphorylated substrate is detected with the europium-labelled phosphotyrosine antibody PT60 (Perkin Elmer, No.: AD00400). […] The time-delayed europium fluorescence is then measured in a microtitre plate reader (VICTOR^3, Perkin Elmer). […]
Listing of recorded pIC50 by entry.
pIC50 is a log-scale quantity: -log10 of the concentration expressed in molar.

Previously resolved entries follow.
COc1cc(C(=O)NC2CCN(C)CC2)c(Cl)cc1Nc1ncc(Cl)c(N[C@@H]2CCCC[C@H]2N(C)S(C)(=O)=O)n1 [Example I-168]    8.52
CNC(=O)c1ccc(Nc2ncc(Br)c(N[C@@H]3CCCC[C@H]3NC(C)=O)n2)c(OC)c1 [Example I-46]    8.70
COc1cc(C(=O)NC2CCN(C)CC2)ccc1Nc1ncc(C(F)(F)F)c(N[C@@H]2CCC[C@H]2NS(C)(=O)=O)n1 [Example I-126]    9.05
COc1cc(C(=O)NC2CCN(C)CC2)ccc1Nc1ncc(C(F)(F)F)c(N[C@@H]2CCCC[C@H]2NC(=O)CN2CCOCC2)n1 [Example I-68]    6.70
COc1cc(C(=O)NC2CCN(C)CC2)ccc1Nc1ncc(C(F)(F)F)c(N[C@@H]2CCCC[C@H]2NCC(=O)N(C)OC)n1 [Example I-26]    7.64

Consider the record given below.
Quick check: pIC50 on PTK2 enzyme (Homo sapiens), item COc1cc(C(=O)NC2CCN(C)CC2)ccc1Nc1ncc(C(F)(F)F)c(N[C@@H]2CCCC[C@H]2NC(=O)C2CC2)n1 [Example I-20] ?
9.00
